B1: Chromodomain-helicase-DNA-binding protein 4, residues 444 to 496; numbered along this chain, Q14839 (parent)
chain: EDDHHMEFCRVCKDGGELLCCDTCPSSYHIHCLNPPLPEIPNGEWLCPRCTCP

Variants of: B1
experiment.description: abundance fitness (aPCA) (normalised: wild type 0, dead -1); higher = more abundant; growth selection in yeast, the domain comes from the species named
stated.conditions: Homo sapiens
measurement.label: abundance fitness
Just the number, please, no unit after it.

# annotated cases, reported abundance fitness shown
{"columns": ["variant.name", "abundance fitness"],
 "data": [
  ["C21H", -0.745],
  ["C32P", -0.937],
  ["P48E", -0.042]
]}

Exercise: // lookup abundance fitness for E44R
Solution: -0.001

Exercise: // lookup abundance fitness for D14N
Solution: -0.205

Exercise: // lookup abundance fitness for L18K
Solution: -0.517

Exercise: // lookup abundance fitness for C21A
Solution: -0.71

Exercise: // lookup abundance fitness for S26H
Solution: 0.021

Exercise: // lookup abundance fitness for E7S
Solution: -0.364

Exercise: // lookup abundance fitness for V11M
Solution: -0.026

Exercise: // lookup abundance fitness for P25G
Solution: -0.106

Exercise: // lookup abundance fitness for G43V
Solution: -0.075

Exercise: // lookup abundance fitness for D2M
Solution: 0.278

Exercise: // lookup abundance fitness for I30M
Solution: 0.026

Exercise: // lookup abundance fitness for K13P
Solution: -1.08

Exercise: // lookup abundance fitness for C12N
Solution: -0.663
